Measured IC50 on Androgen receptor (Homo sapiens, UniProt P10275) follows.
Sequence (P10275 whole entry): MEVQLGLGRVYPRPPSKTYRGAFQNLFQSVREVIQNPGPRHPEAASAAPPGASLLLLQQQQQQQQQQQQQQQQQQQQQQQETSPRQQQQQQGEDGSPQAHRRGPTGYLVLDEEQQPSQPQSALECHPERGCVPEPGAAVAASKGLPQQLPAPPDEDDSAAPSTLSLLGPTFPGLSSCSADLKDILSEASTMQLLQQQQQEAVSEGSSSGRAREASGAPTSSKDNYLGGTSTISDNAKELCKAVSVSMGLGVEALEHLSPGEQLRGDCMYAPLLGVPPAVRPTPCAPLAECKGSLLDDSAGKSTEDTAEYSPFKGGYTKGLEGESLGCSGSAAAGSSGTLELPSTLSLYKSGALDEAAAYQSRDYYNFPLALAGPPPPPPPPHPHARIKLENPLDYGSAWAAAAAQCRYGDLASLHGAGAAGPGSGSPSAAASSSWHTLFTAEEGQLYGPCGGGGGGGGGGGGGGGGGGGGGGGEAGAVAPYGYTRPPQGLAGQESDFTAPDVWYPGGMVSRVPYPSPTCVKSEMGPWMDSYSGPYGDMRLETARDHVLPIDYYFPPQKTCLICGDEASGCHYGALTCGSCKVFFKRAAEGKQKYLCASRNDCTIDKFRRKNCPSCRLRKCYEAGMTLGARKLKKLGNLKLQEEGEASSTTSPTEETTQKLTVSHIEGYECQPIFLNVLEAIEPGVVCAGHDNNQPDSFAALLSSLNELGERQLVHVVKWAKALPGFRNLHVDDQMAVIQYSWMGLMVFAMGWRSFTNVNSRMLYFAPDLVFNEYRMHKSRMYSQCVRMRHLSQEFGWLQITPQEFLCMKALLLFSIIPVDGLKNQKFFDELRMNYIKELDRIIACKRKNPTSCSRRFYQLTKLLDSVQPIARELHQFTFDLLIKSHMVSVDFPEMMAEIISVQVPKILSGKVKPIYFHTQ
measurement_label: IC50 (nM)

INSERT INTO results (molecule, reported) VALUES
  ('O=c1cc(C(F)(F)F)c2cc3c(cc2[nH]1)OC[C@H](CO)N3CC(F)(F)F', 165),
  ('O=c1cc(C(F)(F)F)c2cc3c(cc2[nH]1)OC[C@@H](Cc1ccccc1)N3CC(F)(F)F', 51),
  ('CSCC1COc2cc3[nH]c(=O)cc(C(F)(F)F)c3cc2N1CC(F)(F)F (racemic)', 25),
  ('Cc1cccc([C@H]2COc3cc4[nH]c(=O)cc(C(F)(F)F)c4cc3N2CC(F)(F)F)c1', 574);
